test_target: FtsZ (SaFtsZ) (Staphylococcus aureus, UniProt P0A031)
Sequence (P0A031 1-390): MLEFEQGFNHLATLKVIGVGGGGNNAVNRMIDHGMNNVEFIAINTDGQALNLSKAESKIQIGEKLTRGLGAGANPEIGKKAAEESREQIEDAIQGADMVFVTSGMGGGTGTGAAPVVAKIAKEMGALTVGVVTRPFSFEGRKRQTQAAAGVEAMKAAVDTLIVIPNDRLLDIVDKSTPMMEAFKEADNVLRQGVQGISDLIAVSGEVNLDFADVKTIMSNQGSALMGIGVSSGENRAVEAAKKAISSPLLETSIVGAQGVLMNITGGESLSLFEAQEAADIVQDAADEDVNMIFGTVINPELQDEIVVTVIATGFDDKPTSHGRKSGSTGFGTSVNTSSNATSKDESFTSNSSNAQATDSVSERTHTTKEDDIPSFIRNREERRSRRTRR
pKd: −log10 of the molar value.

>  <compound>
Cc1cc2c(C(C)C)c(O)c(O)c(C=O)c2c(O)c1-c1c(C)cc2c(C(C)C)c(O)c(O)c(C=O)c2c1O [S2303, Gossypol acetate]

>  <pKd>
5.44

$$$$

Cited source for all entries: paper PMC9878342
